target: T1, PSMA Fab (006 PSMA Fab) (biotinylated for capture on neutravidin plates (site not stated)); assay: clonal phage ELISA on captured PSMA Fab pre-incubated with PSMA antigen as competitor, anti-M13-HRP detection;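 note: wells blocked with buffer plus PSMA antigen before phage addition, with blocking buffer alone as the no-competitor control, bound phage detected after washing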
T1 construct: also called Anti-PSMA Fab
Where no end group is shown, it is not given here.
Each record is given criterion met if its reported Phage binding ELISA signal, Anti-PSMA Fab in presence of PSMA is strictly below 0.07. Records at or above 0.07 are given criterion not met.

Task: I wonder whether VKHVCMPEWMCYWS (cysteine pairing not given here; also: fused to pIII, displayed on bacteriophage) [Phage-2803] has Phage binding ELISA signal, Anti-PSMA Fab in presence of PSMA below 0.07. Can you tell?
Output: criterion not met

Task: For FSKLCTPPWMCSVS [Phage-2813] , is the recorded Phage binding ELISA signal, Anti-PSMA Fab in presence of PSMA below the cut-off of 0.07?
Output: criterion not met

Task: Please let me know if EAKWCTPPWMCSLV [Phage-2817] shows Phage binding ELISA signal, Anti-PSMA Fab in presence of PSMA below 0.07.
Output: criterion met

Task: A record lists SVHMCKPPWMCQSM [Phage-2818] . Is its Phage binding ELISA signal, Anti-PSMA Fab in presence of PSMA below 0.07?
Output: criterion not met

Task: Does the reported Phage binding ELISA signal, Anti-PSMA Fab in presence of PSMA of EGKWCTPTWMCQGF [Phage-2804] stay below 0.07?
Output: criterion not met

Task: Given MEKWCTPRWMCVGM [Phage-2808] , is recorded Phage binding ELISA signal, Anti-PSMA Fab in presence of PSMA strictly lower than 0.07?
Output: criterion not met

Task: Given the entry VGPWCIPDWMCDVV [Phage-2812] , would its reported Phage binding ELISA signal, Anti-PSMA Fab in presence of PSMA be below 0.07?
Output: criterion not met

Task: In plain terms, does MMHWCTPPWMCEFS [Phage-2805] come in under 0.07 for Phage binding ELISA signal, Anti-PSMA Fab in presence of PSMA?
Output: criterion met

Task: Could you please tell me whether Phage binding ELISA signal, Anti-PSMA Fab in presence of PSMA recorded for VTKLCIPEWMCVIQ [Phage-2809] is less than 0.07?
Output: criterion met

Task: Given the entry GATWCTPTWMCTGF [Phage-2806] , would its reported Phage binding ELISA signal, Anti-PSMA Fab in presence of PSMA be below 0.07?
Output: criterion not met

Task: Record PMKWCTPPWMCSYS [Phage-2814] : is its Phage binding ELISA signal, Anti-PSMA Fab in presence of PSMA strictly below 0.07?
Output: criterion met

Task: hey, is Phage binding ELISA signal, Anti-PSMA Fab in presence of PSMA for IDKWCVPAWMCSPA [Phage-2815] lower than 0.07 or not?
Output: criterion met

Task: Please determine if VPKWCTPSWMCEFT [Phage-2811] is below 0.07 in terms of Phage binding ELISA signal, Anti-PSMA Fab in presence of PSMA.
Output: criterion met

Task: Lab note: confirm whether the reported Phage binding ELISA signal, Anti-PSMA Fab in presence of PSMA for this binder is below 0.07, equality not counting. binder: MDIWCKPRWMCEEY [Phage-2810]
Output: criterion met

Task: Is it true that Phage binding ELISA signal, Anti-PSMA Fab in presence of PSMA reported for WENWCIPQWMCGTA [Phage-2807] is less than 0.07?
Output: criterion not met

Source of measurements: patent US20260242478A1
